EXPERIMENTAL_SYSTEM: T1, PACAP-R3 (human, UniProt P41587 24-438)
T1 sequence (looked up): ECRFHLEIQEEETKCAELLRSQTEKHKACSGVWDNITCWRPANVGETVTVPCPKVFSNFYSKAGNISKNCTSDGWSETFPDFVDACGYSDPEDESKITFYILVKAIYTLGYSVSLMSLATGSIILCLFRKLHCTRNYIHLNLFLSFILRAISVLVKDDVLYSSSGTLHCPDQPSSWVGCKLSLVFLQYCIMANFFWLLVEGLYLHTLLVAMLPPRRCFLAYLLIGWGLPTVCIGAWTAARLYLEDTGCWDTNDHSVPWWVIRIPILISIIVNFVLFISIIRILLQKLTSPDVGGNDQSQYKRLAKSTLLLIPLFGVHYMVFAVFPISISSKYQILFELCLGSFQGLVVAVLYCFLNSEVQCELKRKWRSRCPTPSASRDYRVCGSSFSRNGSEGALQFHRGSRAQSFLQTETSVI
ASSAY_NAME: cell-based or functional assay
Non-standard residues stand in square brackets, D forms with d. Nle = CCCC[C@H](N)C(=O)O
TEST_READOUT: R3 Selectivity

[[record]]
binder = "HSDGIFTDSYSRYRKQLAAKKYLADVKKGGT [R3P37]"
test_readout = "R3 Selectivity"
reading_qualifier = "="
measured_result = 18

[[record]]
binder = "HSDAVFTDQYTRLRKQLAAKKYLNTIKNKRY [R3P72]"
test_readout = "R3 Selectivity"
reading_qualifier = ">"
measured_result = 600

[[record]]
binder = "HSDAVFTDNYTRLRKQMASKKYLNSIKNKR [R3P111]"
test_readout = "R3 Selectivity"
reading_qualifier = "="
measured_result = 300

[[record]]
binder = "HSDAVFTDQYTRLRKQMAAKKYLNSIKNKRY [R3P71]"
test_readout = "R3 Selectivity"
reading_qualifier = "="
measured_result = 660

[[record]]
binder = "HSDAVFTDNYTRLRKQMAAKKYLNSIKNTR [R3P149]"
test_readout = "R3 Selectivity"
reading_qualifier = "="
measured_result = 80

[[record]]
binder = "Ac-HSDAVFTENYTKLRKQ[Nle]AAKKYLNDLKKGGT-NH2 [R3P0]"
test_readout = "R3 Selectivity"
reading_qualifier = ">"
measured_result = 250

[[record]]
binder = "HSDAVFTDNYTRLRKQMAAKKYLNSIKKK [R3P54]"
test_readout = "R3 Selectivity"
reading_qualifier = ">"
measured_result = 200

[[record]]
binder = "HSDAVFTDNYTRLRKQMAAKKYLNTIKNKRY [R3P70]"
test_readout = "R3 Selectivity"
reading_qualifier = ">"
measured_result = 250

[[record]]
binder = "HSDAVFTDNYTRLRKQMAAKKYLNSIKN [R3P49]"
test_readout = "R3 Selectivity"
reading_qualifier = "="
measured_result = 30

[[record]]
binder = "HSDAVFTDNYTRLRKQLAVKKYLNDILKGGT [R3P28]"
test_readout = "R3 Selectivity"
reading_qualifier = "="
measured_result = 1

[[record]]
binder = "HSDAVFTDNYTRLRKQLAAKKYLNDIKKG [R3P32]"
test_readout = "R3 Selectivity"
reading_qualifier = "="
measured_result = 200

[[record]]
binder = "HSDAVFTDNYTRLRKQVAAKKYLQSILKK [R3P85]"
test_readout = "R3 Selectivity"
reading_qualifier = "="
measured_result = 30

[[record]]
binder = "HSDAVFTDNYTRLRKQVAVKKYLQSILKKRY [R3P87]"
test_readout = "R3 Selectivity"
reading_qualifier = "="
measured_result = 3

